Experiment: Plasma and brain levels after the USV assay
Type: in vivo, rat
Details: 1 mg/kg per os, approximately 75 min after treatment, rat brain
ENDPOINT_LABEL: brain exposure at 1 mg/kg (ng/g)
# value in ng/g; strip the unit string

Illustrative cases are given below, each with its answer.
# COMPOUND, brain exposure at 1 mg/kg / ng/g
records = [
    ("Cc1nc2cc([C@H]3CC[C@H](C(F)(F)F)CC3)nn2c(N2CCC[C@](C(=O)O)(C(C)C)C2)c1C(C)C [Example 2]", 74),
    ("Cc1nc2c(F)c([C@H]3CC[C@H](C(F)(F)F)CC3)nn2c(N2CCC[C@@](C)(C(=O)O)C2)c1C(C)C (single isomer, unassigned) [Example 16]", 36),
    ("Cc1nc2cc([C@H]3CC[C@H](C(F)(F)F)CC3)nn2c(N2CCC[C@@](C)(C(=O)O)C2)c1C(C)C [Example 3]", 18),
    ("Cc1nc2cc([C@H]3CC[C@H](C(F)(F)F)CC3)nn2c(N2CCC[C@](C)(C(=O)O)C2)c1C(C)C [Example 11]", 68),
    ("C[C@@]1(C(=O)O)CCCN(c2c3c(nc4cc([C@H]5CC[C@H](C(F)(F)F)CC5)nn24)CCCCC3)C1 [Example 35]", 35),
]

Now look at this one.
input: Hello, please tell me recorded brain exposure at 1 mg/kg for this one: CC[C@]1(C(=O)O)CCCN(c2c(C(C)C)c(C)nc3c(F)c([C@H]4CC[C@H](C(F)(F)F)CC4)nn23)C1 (single isomer, unassigned) [Example 17]
output: 74
